Biological target: human GPR119 (hGPR119) (Homo sapiens)
Sequence (Q8TDV5 whole entry): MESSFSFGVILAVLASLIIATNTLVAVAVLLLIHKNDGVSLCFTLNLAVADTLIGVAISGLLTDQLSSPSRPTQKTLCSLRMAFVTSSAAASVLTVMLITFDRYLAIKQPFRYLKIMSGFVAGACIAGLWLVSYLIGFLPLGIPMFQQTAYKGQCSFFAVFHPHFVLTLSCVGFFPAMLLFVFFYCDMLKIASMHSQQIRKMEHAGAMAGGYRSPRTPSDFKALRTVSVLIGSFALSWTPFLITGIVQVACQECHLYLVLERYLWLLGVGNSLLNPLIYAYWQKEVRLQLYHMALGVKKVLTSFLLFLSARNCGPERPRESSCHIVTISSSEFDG
Experiment: cAMP accumulation assay (Cisbio cAMP Gs dynamic HTRF kit) in CHO-K1 cells stably expressing human GPR119
Settings: 60 minutes at 37° C., 4-parameter fit
Please go through the items and note down their EC50.

Which EC50 value is on record for O=C(Cc1ccc(OCCCC2CCN(c3ncc(Cl)cn3)CC2)cc1F)N1CCC2(CC1)CCN2C[C@H](O)[C@H](O)[C@H](O)CO ?
≤ 0.1 µM

Tell me the measured EC50 of O=C(Cc1ccc(OCCCC2CCN(c3ncc(Cl)cn3)CC2)cc1F)N1C[C@@H]2CCN(C[C@H](O)[C@@H](O)[C@H](O)[C@H](O)CO)[C@@H]2C1 , please.
≤ 0.1 µM

Fill blank: measured EC50 of the compound O=C(Cc1c(F)cc(OCCCC2CCN(C(=O)OC3(C(F)(F)F)COC3)CC2)cc1F)N1CCN(C[C@H](O)[C@@H](O)[C@H](O)[C@H](O)CO)CC1 is ____.
0.1 to 1 µM

Using the record for O=C(CCCCS(=O)(=O)O)N1CC2CCC1CN2C(=O)Cc1ccc(OCCCC2CCN(c3ncc(Cl)cn3)CC2)cc1F (stereo not drawn) , report its EC50.
≤ 0.1 µM

Given COCc1cnc(N2CCC(CCCCOc3ccc(CC(=O)N4CCN(C[C@H](O)[C@@H](O)[C@H](O)[C@H](O)CO)CC4)c(F)c3)CC2)nc1 , state its recorded EC50.
0.1 to 1 µM

Requested read-out: EC50. Entry: CC(C)OC(=O)N1CCC(CCCOc2ccc(CC(=O)N3CCN(C[C@H](O)[C@@H](O)[C@H](O)[C@H](O)CO)CC3)c(F)c2)CC1
0.1 to 1 µM
